Exercise: for every item that follows, state its recorded TGI.
tested on: OVCAR-3 ovarian; assay: NCI tumour cell line growth inhibition, 48 h

Below are 5 compounds. Give each one its TGI.
1. CN1CCN(c2ccc(-n3cc(C(=O)O)c(=O)c4cc(F)c(N5CCN(C)CC5)cc43)nc2)CC1
2. COC(=O)[C@@H]1C[C@]2(CC=C(C)C)c3ccccc3N(S(=O)(=O)c3ccccc3)[C@@H]2N1C(=O)OC
3. COc1cc(OC)cc(-c2cncn2-c2ccc(-c3nc4cc(OC)c(OC)c(OC)c4s3)cc2)c1
4. O=C1OC2C(O)C(=O)OC2C1O (stereo not given)
5. c1ccc2c(c1)C(=Nc1ccc(N=C3c4ccccc4-c4ccccc43)cc1)c1ccccc1-2

Result string:
1. > 100 µM
2. > 100 µM
3. 26.7 µM
4. > 100 µM
5. > 100 µM

* * *

tested on: SF-295 CNS; assay: NCI tumour cell line growth inhibition, 48 h
Please go through the items and note down their TGI.

Cc1cccc(NC(=S)N/N=C(/c2ccccc2)c2ccccn2)c1 : 10.7 µM
Cc1cccc(NC(=O)CC#N)c1Cl : > 100 µM

# batch size: 5; output TGI per entry
1. CC1Cc2cc(O)ccc2C2[C@@H]1C1CC[C@H](O)[C@@]1(C)C[C@@H]2O[N+](=O)[O-] (stereo partly specified)
2. CCNc1ncnc2n[nH]nc12
3. COc1cc2c3c(n(CCCCl)c(=O)c2cc1OC)-c1ccc(C#N)cc1C3=O
4. CC[C@]12CCCN3CC[C@]4(C(=C(C(=O)OC)C1)Nc1ccccc14)[C@@H]32
5. O=[N+]([O-])c1ccc(-c2cn(-c3ccc(Cl)cc3)cn2)cc1

Result string:
["39.2 µM", "> 100 µM", "18.8 µM", "36.1 µM", "36.9 µM"]

Batch of 4 molecules: report TGI for each.
1. O=c1[nH]c(=O)n(C2CC(O)C(CO)O2)cc1C#Cc1cc(F)cc(F)c1 (stereo unspecified)
2. CN1CCCCC1CCN1c2ccccc2Sc2ccc(S(C)=O)cc21 (stereo unspecified)
3. CCN(CC)C1=Nc2ccccc2-n2c(C)cnc2C1
4. CCCCOC(=O)C1CN2C(=NC1(C(F)(F)F)C(F)(F)F)Sc1ccccc12 (stereo unspecified)

Result string:
1. > 100 µM
2. > 100 µM
3. > 100 µM
4. > 100 µM

* * *

tested on: NCI-H23 lung; test: NCI tumour cell line growth inhibition, 48 h; in the data active means GI50 below about 0.43 µM; inactive means the rest
*1 amine or outer side, *2 acyl side, *3 side chain or, on linkers, in order; H or OH if unused. Where a SMILES comes first, the peptide text is derived from it. Bridges are numbered along the chain shown (N, C = ends). [ ]: non-standard residue; d: D form. The star is where a group is joined. Phe(3-Me) = Cc1cccc(C[C@H](N)C(=O)O)c1; NH(4-Cl-2-F-phenyl) = Fc1cc(Cl)ccc1N*; Pro(4R-Me) = C[C@H]1CN[C@H](C(=O)O)C1; Propanoyl(3-NMe2) = CN(C)CCC(=O)*; Hyp = O=C(O)[C@@H]1C[C@@H](O)CN1; aThr = C[C@H](O)[C@H](N)C(=O)O; Pip = O=C(O)[C@@H]1CCCCN1; CO = O=C([*:1])[*:2]
Write down the outcome that applies. Available outcomes: class 1 for active, class 0 for inactive

COc1cc(OC)cc(-c2cncn2-c2ccc(-c3nc4cc(OC)c(OC)c(OC)c4s3)cc2)c1 : class 0

Query string: Just curious, what result did O=c1cccc(C#CC#C/C=C/CO)o1 get here?
Result string: class 0

Query string: What is the recorded call for this compound in the test? COc1ccc(-c2nocc2-c2cc(OC)c(OC)c(OC)c2)cc1
Result string: class 0

Query string: # fetch the recorded call for Cc1ccc(NC(=O)c2nc(S(C)=O)oc2-c2ccc(F)cc2)cc1Nc1nccc(-c2cccnc2)n1 (stereo unspecified) here
Result string: class 0

Query string: Query: recorded result category for COc1cc(-c2cc(CCC(=O)Nc3ccccc3[N+](=O)[O-])n(-c3ccc([N+](=O)[O-])cc3[N+](=O)[O-])n2)ccc1O in this test
Result string: class 0

Query string: Please indicate how the test categorized CC(C)Oc1ccc(C(=O)N[C@H](CNC(=O)CN(C)C)Cc2ccc(-c3cn4cccc([C@H](C)O)c4n3)cc2)cc1Cl .
Result string: class 1

Query string: What was the test verdict on O=C([O-])c1ccccc1Nc1ccccc1[O-].[Ni+3].[OH3+].[OH3+].[OH3+] ?
Result string: class 0

Query string: Please indicate how the test categorized CC(=O)Nc1sc2c(c1-c1nc3ccccc3s1)CNC2 .
Result string: class 0

Query string: // return assay outcome for CSc1nc2c(c(=O)[nH]1)C(c1ccc(Cl)cc1)C1=C(N2)/C(=C/c2ccc(Cl)cc2)CNC1 (stereo unspecified)
Result string: class 0

Query string: Field: outcome | Entry: S=C(N/N=C(/c1ccccc1)c1ccccn1)Nc1cccc(Cl)c1
Result string: class 0

Query string: I would be grateful if you could indicate the recorded call for Cc1cccc(C[C@H](NC(=O)Nc2ccc(Cl)cc2F)C(=O)N[C@@H]2C(=O)N3C[C@H](OC(=O)CCN(C)C)C[C@H]3C(=O)N3CCCC[C@H]3C(=O)N[C@@H](C)C(=O)N3C[C@H](C)C[C@H]3C(=O)O[C@H]2C)c1 ({NH(4-Cl-2-F-phenyl)-CO}-[Phe(3-Me)][aThr][Hyp](Propanoyl(3-NMe2))[Pip]A[Pro(4R-Me)]; ester 2-C) .
Result string: class 0

Query string: Give the logged outcome of this assay for the following compound: COC(=O)c1ccc(C2SCC(=O)N2NC(=O)C(O)c2ccccc2)cc1 (stereo unspecified)
Result string: class 0

Query string: Outcome? CCc1ccc(Nc2cc(C)nc3nc(C)nn23)cc1
Result string: class 0

Query string: Please indicate how the test categorized O=CC1(C2(C=O)c3ccccc3-c3ccccc32)c2ccccc2-c2ccccc21 .
Result string: class 0

Query string: Record request — test call for Nc1nc2c(c3cnccc13)C(c1cccc(Cl)c1)Cc1cnccc1-2 (stereo unspecified)
Result string: class 1

Query string: Could you please tell me the result logged for CCCCCCCCCC(CCCC(O)CC(=O)O)OC1OC(COC2OC(C)C(O)C(O)C2O)C(O)C(O)C1OC1OC(CO)C(O)C(O)C1OC1OC(C)C(O)C(O)C1O (stereo unspecified) in this assay?
Result string: class 0

Values compiled from PubChem BioAssay (NCI).
